Recorded values, source PubChem BioAssay (NCI).

System: OVCAR-8 ovarian
assay_remarks: NCI tumour cell line growth inhibition, 48 h
property: TGI

# annotated cases, reported TGI shown
{"compound": "COC(=O)c1c(O)ccc2c1c1c(n2Cc2ccc(OC)cc2)C(=O)c2ccccc2C1=O", "TGI": "11.7 µM"}
{"compound": "O=c1[nH]nc(Cc2ccccc2)n1/N=C/c1ccc([N+](=O)[O-])o1", "TGI": "19.2 µM"}
{"compound": "Cc1ccc(C(=O)Cc2nc3ncccc3[nH]c2=O)cc1", "TGI": "53.1 µM"}
{"compound": "C/C=C(\\C)C(=O)N[C@H]1[C@@H](OC(C)=O)C[C@]2(C)C3CC[C@@]4(C)C(CC[C@@H]4C(C)N(C)C)C3CCC2[C@H]1O (some centres not stated)", "TGI": "43.4 µM"}

Suppose we examine the compound N#Cc1ccccc1NC(=O)/C(=N\NC(=O)c1ccncc1)C(c1cnc2ccc([N+](=O)[O-])cc2n1)[N+](=O)[O-] (configuration not stated) ; what TGI value has been reported?
> 100 µM

====

Test system: K-562 leukemia
assay_remarks: NCI tumour cell line growth inhibition, 48 h
property: TGI

# annotated cases, reported TGI shown
{"compound": "CC(=O)NC1=C(Nc2ccc(C)cc2)C(=O)c2ccccc2C1=O", "test_target": "K-562 leukemia", "meas_value": "> 75 µM"}
{"compound": "CCn1nc(-c2ccccc2)c2c1N(C)c1ccccc1-n1c(-c3ccccc3)nnc1-2", "test_target": "K-562 leukemia", "meas_value": "> 100 µM"}
{"compound": "O=C(NC1CC1)c1ccc(-c2nc3ccc4[nH]ncc4c3c3c2CCCC3)cc1", "test_target": "K-562 leukemia", "meas_value": "> 50 µM"}
{"compound": "O=C1C(=Cc2ccco2)C(=O)C2CCCCC12 (configuration not stated)", "test_target": "K-562 leukemia", "meas_value": "73.2 µM"}

// below: TGI requested for another compound
Suppose we examine the compound COc1cc(C(=O)O[C@H](C(=O)NCCNC(=O)[C@@H](OC(=O)c2cc(OC)cc3c(C)cccc23)[C@]2(C)CO2)[C@]2(C)CO2)c2cccc(C)c2c1 ; what TGI value has been reported?
15.3 µM

====

Overview of recorded TGI for various compounds
Tested on: ACHN renal
assay_remarks: NCI tumour cell line growth inhibition, 48 h

# annotated cases, reported TGI shown
{"compound": "NC(Cc1ccccc1)=NCC(=O)O", "test_target": "ACHN renal", "TGI": "> 100 µM"}
{"compound": "CCN(CC)c1ccc2c(c1)Oc1ccc(N(C(C)=O)c3ccccc3)cc1C21OC(=O)c2ccccc21 (stereo not drawn)", "test_target": "ACHN renal", "TGI": "> 100 µM"}

// below: TGI requested for another compound
Suppose we examine the compound CC1(C)CC(=O)C2=C(C1)NC(SCC(=O)O)=C(C#N)C2c1ccc(Br)cc1 (stereo not drawn) ; what TGI value has been reported?
> 100 µM

====

Overview of recorded GI50 for various molecules
Test system: SK-MEL-28 melanoma
assay_remarks: NCI tumour cell line growth inhibition, 48 h

# annotated cases, reported GI50 shown
{"molecule": "COc1cc2c(c(OC)c1OC)-c1ccc(SC)c(=O)cc1[C@@H](NC(=O)c1ccc(OC(C)=O)cc1)CC2", "GI50": "15 µM"}
{"molecule": "COc1cc(NC(=O)c2cc(OC)c3ccn(C)c3c2)cc2c1C[C@]1(C)CC[C@@H](O)C(C)(C)[C@H]1O2", "GI50": "5.29 µM"}

Suppose we examine the molecule CC(C)(C)C(=O)Nc1ccccc1I(=O)=O ; what GI50 value has been reported?
> 100 µM

Suppose we examine the molecule N#CC1=C(N)N=C(N2CCCCC2)C(C#N)C12Nc1ccccc1S2 (centres undefined) ; what GI50 value has been reported?
26.6 µM

Suppose we examine the molecule COC1/C=C\C=C(/C)C(=O)Nc2cc3nc4ccc(Br)cc4oc-3c(c2=O)CC(C)CC(OC)C(O)C(C)/C=C(\C)C1OC(N)=O (centres undefined) ; what GI50 value has been reported?
0.000391 µM

Suppose we examine the molecule COc1c(C)c2c(c(O)c1C/C=C(\C)CCC(=O)OCCN1CCOCC1)C(=O)OC2 ; what GI50 value has been reported?
0.236 µM

====

Overview of recorded TGI for various compounds
Tested on: SN12C renal
assay_remarks: NCI tumour cell line growth inhibition, 48 h

# annotated cases, reported TGI shown
{"compound": "O=c1[nH]c2nccnc2c2c([N+](=O)[O-])cccc12", "TGI": "> 100 µM"}
{"compound": "Cc1cccc(/C=N/NC(=S)N2CCCCCC2)n1", "TGI": "0.805 µM"}
{"compound": "C[C@@H]1O[C@@H](O[C@@H]2[C@@H](O)[C@H](OCCc3ccc(O)c(O)c3)O[C@H](COC(=O)/C=C/c3ccc(O)c(O)c3)[C@H]2O)[C@H](O)[C@H](O)[C@H]1O", "TGI": "> 100 µM"}
{"compound": "OC(C1=C/C(=C\\c2ccncc2)c2ccccc21)c1ccncc1 (stereo not drawn)", "TGI": "35.4 µM"}
{"compound": "COc1cc(Cl)cc(-c2nn(C(=O)NCCN3CCN(C)CC3)cc2-c2ccncc2)c1", "TGI": "> 100 µM"}
{"compound": "COc1ccc(/C=C2\\Sc3nnc(C)n3N=C2c2cc(F)c(Cl)cc2Cl)cc1OC", "TGI": "34.5 µM"}
{"compound": "CCN(CC)c1ccc2c(c1)Oc1ccc(N(C(C)=O)c3ccccc3)cc1C21OC(=O)c2ccccc21 (stereo not drawn)", "TGI": "> 100 µM"}

// below: TGI requested for another compound
Suppose we examine the compound COc1ccc(C2c3cc4c(cc3OC(NNC(N)=O)C2C)OCO4)cc1 (stereo not drawn) ; what TGI value has been reported?
> 100 µM

====

Overview of recorded GI50 for various molecules
System: MDA-MB-231 breast
assay_remarks: NCI tumour cell line growth inhibition, 48 h

# annotated cases, reported GI50 shown
{"record_smiles": "N=C1c2nc3n(c2C(=O)c2nc4n(c21)CCCC4)CCCC3", "meas_value": "33.6 µM"}
{"record_smiles": "CCCCCNC(=O)[C@@H]1CCCN2C(=O)CC[C@H](NC(=O)[C@H](Cc3ccc(OP(=O)(O)O)cc3)NC(C)=O)C(=O)N12", "meas_value": "> 25 µM"}
{"record_smiles": "COc1c(C)c2c(c(O)c1C/C=C(\\C)CCC(=O)OCCN1CCOCC1)C(=O)OC2", "meas_value": "3.48 µM"}

// below: GI50 requested for another molecule
Suppose we examine the molecule CCOC(=O)Cc1csc(/N=C2\NC(=O)/C(=C3\C(=O)N(C)c4ccccc43)S2)n1 ; what GI50 value has been reported?
37.4 µM

====

System: HL-60(TB) leukemia
assay_remarks: NCI tumour cell line growth inhibition, 48 h
property: TGI (µM)
Enter your answer as a number in µM; do not include the unit.

{"molecule": "N#CC1=C(N)OC2=C(COc3ccc(F)cc32)C1c1ccc(Cl)cc1 (stereo not drawn)", "test_target": "HL-60(TB) leukemia", "property": "TGI", "meas_value": 86}

// below: TGI requested for another molecule
Suppose we examine the molecule CCCN=C1Nc2ccccc2[C@@H]2N(C)c3ccccc3C(C)C[C@]12C (stereo partly drawn) ; what TGI value has been reported?
56.1

====

Test system: SF-268 CNS
assay_remarks: NCI tumour cell line growth inhibition, 48 h
property: TGI

{"molecule": "c1nncn1C12C3C4C5C3C1C5C42 (stereo not drawn)", "TGI": "> 100 µM"}
{"molecule": "COc1ccc2c([nH]c3cc(O)c(C)cc32)c1C=O", "TGI": "> 25 µM"}
{"molecule": "O=C1CSC(c2cccc(Cl)c2)N1c1c(O)c(Cl)cc(Br)c1Cl (stereo not drawn)", "TGI": "> 100 µM"}

Suppose we examine the molecule CN1c2ccccc2C(=O)NC12CCN(Cc1ccccc1)CC2 ; what TGI value has been reported?
> 100 µM

Suppose we examine the molecule N#Cc1nc(C(F)(F)F)oc1N ; what TGI value has been reported?
> 100 µM

Suppose we examine the molecule c1ccc2c(c1)CCN(C1=NCCO1)C2 ; what TGI value has been reported?
> 10 µM

====

System: SK-MEL-5 melanoma
assay_remarks: NCI tumour cell line growth inhibition, 48 h
Overview of recorded TGI for various molecules

# annotated cases, reported TGI shown
{"molecule": "CC(=O)C1CC2(c3ccc(C)cc3)C(c3ccc(C)cc3)=C(c3ccc(C)cc3)C1(c1ccc(C)cc1)S2=O (stereo unspecified)", "property": "TGI", "meas_value": "> 100 µM"}
{"molecule": "N#Cc1ccc(OC(=O)c2ccc(N=C(N)N)cc2)cc1", "property": "TGI", "meas_value": "> 100 µM"}
{"molecule": "S=c1nc(Oc2ccc(Cl)c(Cl)c2)[nH]c(=S)[nH]1", "property": "TGI", "meas_value": "> 55.6 µM"}

Provide the documented TGI with SK-MEL-5 melanoma as the system for Cc1ccccc1CN1CC2=C(CCN(Cc3ccccc3)C2=O)N2CCN=C12
> 64.7 µM

Provide the documented TGI with SK-MEL-5 melanoma as the system for O=C(CCCC1Cc2ccccc2C1=O)c1ccccc1 (stereo unspecified)
> 100 µM
